Ref: PubChem BioAssay (Tox21)

- assay_explanation: qHTS assay to identify small molecule antagonists of the retinoic acid receptor (RAR) signaling pathway (AID 1159552; further: nearly all actives have a fitted effect of over 50% in size)
- study_conditions: C3RL4 RARE luciferase reporter, retinol-stimulated, 6 h; series mostly up to 92.4 µM
Results filed as inconclusive are left out. Active and inactive are the calls of the source. The call rests on the fitted dose curve; in most records, active means well fitted inhibition curve with a large enough effect in the repeat runs; inconclusive means weak or mixed curves, or effect the other way; inactive means no such curve, though single readings can be large or run the other way.
Response enum: active, inactive

INSERT INTO assay_data (compound, group) VALUES
  ('Nc1c(Br)cc([N+](=O)[O-])cc1Br', 'inactive'),
  ('NCc1cccc(C2CCN(C(=O)c3ccc(C#Cc4ccccc4F)o3)CC2)c1', 'active'),
  ('COc1ccc(OC)c(N=Nc2c(O)ccc3ccccc23)c1', 'inactive'),
  ('O=C(Cl)c1ccc(Cl)cc1Cl', 'inactive'),
  ('O=C1OC(=O)c2cc(-c3ccc4c(c3)C(=O)OC4=O)ccc21', 'inactive'),
  ('CCn1c2ccccc2c2ccccc21', 'inactive'),
  ('COC(=O)c1ccc([N+](=O)[O-])cc1', 'inactive'),
  ('CC1=C(/C=C/C(C)=C/C=C/C(C)=C\C(=O)O)C(C)(C)CCC1', 'inactive');

Now let's try a different one.
Ask: Could you check what this test reported for CCCOC(=O)c1ccc(O)cc1 ?
Reply: inactive

----------
- assay_explanation: A CellTox Green Cytotoxicity Assay to monitor cytotoxicity in HepG2 cells - 8 hour (AID 1224890); further: on the % scale 0 is the no-effect control and ±100 the full control effect; nearly all actives have a fitted effect of over 45% in size
- study_conditions: CellTox Green fluorescence; series mostly up to 76.8 µM
- Excerpt: National Center for Advancing Translational Sciences [NCATS] NIH Chemical Genomics Center [NCGC] U.S. Environmental Protection Agency [EPA] National Institutes of Environmental Health Sciences [NIEHS] National Toxicology Program [NTP] Cell-based models are critical for drug discovery. […] Viable cells produce no appreciable increases in fluorescence. Therefore, the fluorescence signal produced by the binding interaction with dead cell DNA is proportional to cytotoxicity. […]
Results filed as inconclusive are left out. Active and inactive are the calls of the source. The call rests on the fitted dose curve; in most records, active means well fitted activation curve with a large enough effect in the repeat runs; inconclusive means weak or mixed curves; inactive means flat fitted curve, though single readings scatter.
Response enum: Y for active, N for inactive

Solved cases (3 shown):
INSERT INTO measurements (molecule, group) VALUES
  ('N#CCCOCCC#N', 'N'),
  ('CC(C)c1ccc2sc3ccccc3c(=O)c2c1', 'N'),
  ('CSc1nnc(C(C)(C)C)c(=O)[nH]1', 'N');

Now let's try a different one.
Ask: Could you check what this test reported for Nc1cc([N+](=O)[O-])cc(Cl)c1O ?
Reply: N

----------
- target_under_test: Aromatase (Homo sapiens) (UniProt P11511)
- Sequence (P11511 whole entry, looked up): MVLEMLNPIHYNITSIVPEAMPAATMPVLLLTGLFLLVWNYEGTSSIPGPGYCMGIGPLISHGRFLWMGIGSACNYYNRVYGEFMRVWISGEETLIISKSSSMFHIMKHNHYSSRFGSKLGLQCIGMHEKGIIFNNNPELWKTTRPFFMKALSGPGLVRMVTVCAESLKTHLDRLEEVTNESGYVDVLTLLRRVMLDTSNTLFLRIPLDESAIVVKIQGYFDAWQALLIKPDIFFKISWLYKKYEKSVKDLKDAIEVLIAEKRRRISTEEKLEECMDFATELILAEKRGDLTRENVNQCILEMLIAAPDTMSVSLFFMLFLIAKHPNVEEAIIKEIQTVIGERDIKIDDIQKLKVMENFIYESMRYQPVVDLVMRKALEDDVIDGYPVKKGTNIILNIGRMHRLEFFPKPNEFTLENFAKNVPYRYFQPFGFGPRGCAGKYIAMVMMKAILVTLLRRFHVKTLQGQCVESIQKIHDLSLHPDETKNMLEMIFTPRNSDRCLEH
- assay_explanation: qHTS assay to identify aromatase inhibitors (AID 743083); further: on the % scale 0 is the no-effect control and ±100 the full control effect; nearly all actives have a fitted effect of over 55% in size
- study_conditions: MCF-7 aro ERE, testosterone-driven ERE luciferase, 24 h; series mostly up to 70.3 µM
Results filed as inconclusive are left out. Active and inactive are the calls of the source. Calls follow the shape of the dose curve; as a rule, active = well fitted inhibition curve with a large enough effect in the repeat runs; inconclusive = weak or mixed curves; inactive = no such curve, though single readings can be large or run the other way.
property_measured: outcome

INSERT INTO measurements (smiles, obs_value) VALUES
  ('C[C@@H]1C[C@H]2[C@@H]3C[C@H](F)C4=CC(=O)C=C[C@]4(C)[C@@]3(Cl)[C@@H](O)C[C@]2(C)[C@H]1C(=O)COC(=O)C(C)(C)C', 'inactive'),
  ('CC(C)C[C@H](NC(=O)[C@@H](COC(C)(C)C)NC(=O)[C@H](Cc1ccc(O)cc1)NC(=O)[C@H](CO)NC(=O)[C@H](Cc1c[nH]c2ccccc12)NC(=O)[C@H](Cc1cnc[nH]1)NC(=O)[C@@H]1CCC(=O)N1)C(=O)N[C@@H](CCCN=C(N)N)C(=O)N1CCC[C@H]1C(=O)NNC(N)=O', 'inactive');

----------
- target_under_test: Cytochrome P450 2C19 (Homo sapiens) (UniProt P33261)
- Sequence (P33261 whole entry, looked up): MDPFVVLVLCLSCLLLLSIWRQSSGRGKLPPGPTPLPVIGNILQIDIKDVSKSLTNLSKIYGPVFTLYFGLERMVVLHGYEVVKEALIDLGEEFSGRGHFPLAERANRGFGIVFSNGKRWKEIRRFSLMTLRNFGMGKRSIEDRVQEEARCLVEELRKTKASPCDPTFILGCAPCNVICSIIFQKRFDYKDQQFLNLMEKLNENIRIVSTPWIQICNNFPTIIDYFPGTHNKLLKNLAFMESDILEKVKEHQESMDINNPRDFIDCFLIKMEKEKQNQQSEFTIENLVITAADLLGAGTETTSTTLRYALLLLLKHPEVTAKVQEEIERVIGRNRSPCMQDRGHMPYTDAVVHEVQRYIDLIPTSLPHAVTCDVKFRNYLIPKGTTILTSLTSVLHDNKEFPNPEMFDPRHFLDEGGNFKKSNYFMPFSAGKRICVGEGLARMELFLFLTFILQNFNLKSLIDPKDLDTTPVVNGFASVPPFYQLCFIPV
- assay_explanation: Cytochrome P450 Family 2 Subfamily C Member 19 (CYP2C19) small molecule antagonists: luciferase reporter qHTS assay (AID 1671197); further: nearly all actives have a fitted effect of over 65% in size
- study_conditions: P450-Glo CYP2C19 enzyme, luciferin luminescence, 1 h; series mostly up to 115 µM
Inconclusive results are not listed. Activity calls are given as the source filed them. The call rests on the fitted dose curve; in most records, active means well fitted inhibition curve with a large enough effect in the repeat runs; inconclusive means weak or mixed curves; inactive means no such curve, though single readings can be large or run the other way.
Response enum: yes (1) for active, no (0) for inactive

Solved cases (4 shown):
INSERT INTO assay_data (molecule, group) VALUES
  ('O=C1CCCCCCCCCCCCCC1', 'no (0)'),
  ('CCOC(=O)[C@H](O)[C@@H](O)C(=O)OCC', 'no (0)'),
  ('c1ccc(-c2ccc(C(c3ccccc3)n3ccnc3)cc2)cc1 (configuration not stated)', 'yes (1)'),
  ('CCC(O)CO (configuration not stated)', 'no (0)');

Ask: Could you check what this test reported for C/C=C/C(=O)OCC(C)C ?
Reply: no (0)

Ask: Could you check what this test reported for C=CCc1cc(S(=O)(=O)c2ccc(O)c(CC=C)c2)ccc1O ?
Reply: yes (1)

Ask: Could you check what this test reported for C=CC(=O)OCCOC1C2CCC1C1CC=CC12 (configuration not stated) ?
Reply: yes (1)

----------
- assay_explanation: qHTS assay to identify small molecule antagonists of the androgen receptor (AR) signaling pathway using the MDA cell line in the presence of 0.5 nM R1881 - cell viability counter screen (AID 1259242); further: nearly all actives have a fitted effect of over 45% in size
- study_conditions: MDA-kb2 viability, CellTiter-Fluor protease fluorescence, 16 h; series mostly up to 92.4 µM
Results filed as inconclusive are left out. Calls of active or inactive are those of the source. Calls follow the shape of the dose curve; as a rule, active = well fitted cell-killing curve with a large enough effect in the repeat runs; inconclusive = weak or mixed curves, or effect the other way; inactive = flat fitted curve, though single readings scatter.
Response enum: active, inactive

Solved cases (3 shown):
INSERT INTO results (compound, group) VALUES
  ('CC(CC(C)(C)C)CC(C)(C)CC(C)(C)C (centres undefined)', 'inactive'),
  ('COc1ccc(OC)c(N=Nc2c(O)ccc3ccccc23)c1', 'active'),
  ('CN(C/C=C/c1ccccc1)Cc1cccc2ccccc12', 'inactive');

Ask: Could you check what this test reported for CC1(C)[C@H]2CC[C@]1(C)C(=O)C2 ?
Reply: inactive

----------
- assay_explanation: qHTS assay for small molecules that induce genotoxicity in human embryonic kidney cells expressing luciferase-tagged ATAD5 - cell viability (AID 651634); further: on the % scale 0 is the no-effect control and ±100 the full control effect; nearly all actives have a fitted effect of over 25% in size
- study_conditions: HEK293T ATAD5-luc cells viability, CellTiter-Fluor, 15.5 h; series mostly up to 83.3 µM
Inconclusive results are not listed. Active and inactive are the calls of the source. Calls come from the whole dose curve.
Response enum: active, inactive

Ask: Could you check what this test reported for NC(=S)NS(=O)(=O)c1ccc(N)cc1 ?
Reply: inactive

Ask: Could you check what this test reported for C=CC1=C(C(=O)O)N2C(=O)[C@@H](NC(=O)/C(=N\O)c3csc(N)n3)[C@H]2SC1 (stereo in doubt) ?
Reply: inactive

----------
- target_under_test: Peroxisome proliferator-activated receptor delta (Homo sapiens) (UniProt Q03181)
- Sequence (Q03181 whole entry, looked up): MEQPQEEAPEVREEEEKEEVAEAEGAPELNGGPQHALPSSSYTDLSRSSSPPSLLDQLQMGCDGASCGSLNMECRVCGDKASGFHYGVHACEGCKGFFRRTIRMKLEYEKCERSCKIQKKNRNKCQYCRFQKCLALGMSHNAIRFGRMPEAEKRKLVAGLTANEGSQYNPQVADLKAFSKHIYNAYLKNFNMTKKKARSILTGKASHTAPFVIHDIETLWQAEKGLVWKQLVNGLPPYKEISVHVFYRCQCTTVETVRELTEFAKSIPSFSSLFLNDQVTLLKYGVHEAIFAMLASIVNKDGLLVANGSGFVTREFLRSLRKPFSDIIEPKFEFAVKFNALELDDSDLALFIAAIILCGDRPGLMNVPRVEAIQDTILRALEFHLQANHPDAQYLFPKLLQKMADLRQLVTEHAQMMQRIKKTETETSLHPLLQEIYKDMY
- assay_explanation: qHTS assay to identify small molecule antagonists of the peroxisome proliferator-activated receptor delta (PPARd) signaling pathway (AID 743215);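 further: cells stimulated with agonist L165041 at 300 nM final during compound exposure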
- study_conditions: HEK293H PPARd-UAS-bla, beta-lactamase FRET ratio, antagonist, 17 h; series mostly up to 62 µM
- Excerpt: U.S. Tox21 Program National Center for Advancing Translational Sciences [NCATS] NIH Chemical Genomics Center [NCGC] U.S. Environmental Protection Agency [EPA] National Institutes of Environmental Health Sciences [NIEHS] National Toxicology Program [NTP] U.S. Food and Drug Administration [FDA] […]
Results filed as inconclusive are left out. Active and inactive are the calls of the source. Calls follow the shape of the dose curve; as a rule, active = well fitted inhibition curve with a large enough effect in the signal ratio in the repeat runs (not every such curve was filed as active); inconclusive = weak or mixed curves, or effect the other way; inactive = no such curve, though single readings can be large or run the other way; the % refers to the signal ratio.
Response enum: active, inactive

Solved cases (3 shown):
INSERT INTO assay_data (molecule, group) VALUES
  ('CCC(C)(C)c1ccc(CC(C)CN2C[C@@H](C)O[C@@H](C)C2)cc1 (some centres not stated)', 'inactive'),
  ('c1ccc(-c2ccc(C(c3ccccc3)n3ccnc3)cc2)cc1 (configuration not stated)', 'active'),
  ('SC1CCCCC1', 'inactive');

Now let's try a different one.
Ask: Could you check what this test reported for CCCCCCCCCC[N+](C)(CCCCCCCCCC)CCC[Si](OC)(OC)OC ?
Reply: inactive

----------
- assay_explanation: qHTS RealTime-Glo MT Cell Viability Assay in HepG2 cells - 32 hour (AID 1224877); further: nearly all actives have a fitted effect of over 55% in size; further: potency means the concentration at half of the fitted maximal effect
- study_conditions: RealTime-Glo luminescence; series mostly up to 76.8 µM
Records with an inconclusive call do not appear. Calls of active or inactive are those of the source. Calls come from the whole dose curve; as a rule, active = well fitted cell-killing curve with a large enough effect in the repeat runs; inconclusive = weak or mixed curves; inactive = flat fitted curve, though single readings scatter.
property_measured: Potency

INSERT INTO assay_data (smiles, property_measured, obs_value) VALUES
  ('CCCCCCCCOC(=O)c1cc(O)c(O)c(O)c1', 'Potency', '19.5 µM (active)'),
  ('O=[N+]([O-])c1ccc(O)c2ncccc12', 'Potency', 'inactive'),
  ('CN1CCN(CCCN2c3ccccc3Sc3ccc(Cl)cc32)CC1', 'Potency', '23.9 µM (active)'),
  ('CC1=CC[C@@H](C(C)(C)O)CC1', 'Potency', 'inactive'),
  ('CC(c1cc(C(C)(C)C)cc(C(C)(C)C)c1O)c1cc(C(C)(C)C)cc(C(C)(C)C)c1O', 'Potency', 'inactive'),
  ('C/C=C/C(=O)C1=C(C)C=CCC1(C)C', 'Potency', 'inactive'),
  ('CCCCCCCCc1ccc(Nc2ccc(CCCCCCCC)cc2)cc1', 'Potency', 'inactive'),
  ('CC(C)(C)C1=CC(=O)C(C(C)(C)C)=CC1=O', 'Potency', 'inactive');

Ask: Give Potency for Nc1ccc2c(S(=O)(=O)O)cccc2c1S(=O)(=O)O
Reply: inactive

Ask: Give Potency for C=C1CC[C@H]2O[C@]2(C)CC[C@@H]2[C@@H]1CC2(C)C
Reply: inactive
